Test system: VEGF165 (human), P15692-4
Sequence: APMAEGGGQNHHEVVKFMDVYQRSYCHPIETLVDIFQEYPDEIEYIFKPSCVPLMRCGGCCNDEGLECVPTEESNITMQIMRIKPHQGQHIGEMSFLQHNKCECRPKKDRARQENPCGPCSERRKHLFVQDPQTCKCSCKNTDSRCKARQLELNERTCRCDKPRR
Experiment: competition
Settings: n = Ds unnatural base in DNA; EMSA competition vs 32P-Aptamer 47 (=1.00), phosphate buffer pH 7.4, 0.005% NP-40, 37 C
REPORTED_PROPERTY: binding signal
Reply briefly: the number, and no unit.

For orientation, consider the following solved cases.
SEQUENCE_INPUT: GCGGTAAACTGCGTCCGAAGGGGCNTGCAGTGANCCCGAATGGGTCCGCCGCGAAGCG [Aptamer 58mh (VEGF)]
TARGET_OF_ASSAY: VEGF165 (human), P15692-4
binding signal: 1.58
//
SEQUENCE_INPUT: GCGGTAAACTGCGTCCGAAGGGGCNTGCAGTGANCCCGAATGGGTCCGC [Aptamer 49 (VEGF)]
TARGET_OF_ASSAY: VEGF165 (human), P15692-4
binding signal: 1.53
//
SEQUENCE_INPUT: GCGGTAAGCCGCGTCCGAAGGGGCNTGCGGCGANCCCGAATGGGTCCGCCGCGAAGCG [Aptamer 58GCmh (VEGF)]
TARGET_OF_ASSAY: VEGF165 (human), P15692-4
binding signal: 1.59

Okay, next one:
Qu. Query (sequence): GCGGTAAGCCGCGTCCGAAGGGGCNTGCGGCGANCCCGAATGGGTCCGC [Aptamer 49GC (VEGF)] ; field requested: binding signal
Ans. 1.5
